Where do these numbers come from? They come from the RNAGym collection of RNA variant scans (doi:10.1021/acssynbio.7b00057).

B1: Pistol ribozyme (parent)
chain: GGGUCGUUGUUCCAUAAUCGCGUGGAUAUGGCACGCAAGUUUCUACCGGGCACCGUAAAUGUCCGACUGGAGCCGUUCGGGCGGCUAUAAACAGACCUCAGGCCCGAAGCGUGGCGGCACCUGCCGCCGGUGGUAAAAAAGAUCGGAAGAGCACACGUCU

variants of: B1; assay: aptazyme ON/OFF ratio, guanine; higher = stronger switching; co-transcriptional cleavage with and without guanine
RECORDED ENDPOINT: aptazyme ON/OFF ratio

MUTANT LABEL | RECORDED ENDPOINT | RECORDED RESULT
U7C U8G G9A U11G C12G C13A | aptazyme ON/OFF ratio | 1.16
U7C U8G G9U U11A C12A | aptazyme ON/OFF ratio | 1.52
U8C G9A U10G U11C C12G | aptazyme ON/OFF ratio | 1.23
U7G U8C G9C C12G C13G | aptazyme ON/OFF ratio | 1.12
U7C U8G G9A U10G C13A | aptazyme ON/OFF ratio | 1.23
U7A G9C U10G U11G C12A C13G | aptazyme ON/OFF ratio | 1.06
U7C U8G U10A U11A C12A C13U | aptazyme ON/OFF ratio | 1.18
U7A U8C G9A U10A U11A C12A | aptazyme ON/OFF ratio | 1.31
U7C U8C G9U U11G C12U C13G | aptazyme ON/OFF ratio | 1.07
U7G U8A G9U U10G U11A C13A | aptazyme ON/OFF ratio | 1.06
U8G G9U U10G U11G C12G C13U | aptazyme ON/OFF ratio | 1.09
U7A U8G G9A U10G C12U C13U | aptazyme ON/OFF ratio | 1.24
U8C G9C U10A C13A | aptazyme ON/OFF ratio | 1.08
U7G G9A U10A U11G | aptazyme ON/OFF ratio | 2.05
U7G U8A G9U U10C U11C C12U C13A | aptazyme ON/OFF ratio | 1.03
U7G U8C U11G C12G C13A | aptazyme ON/OFF ratio | 1.11
G9C U10A C12A | aptazyme ON/OFF ratio | 1.81
U8A G9U U10C U11G C12G C13G | aptazyme ON/OFF ratio | 1.11
U7G U8G G9C U10G C12A | aptazyme ON/OFF ratio | 1.14
U7G U8G G9U U10C U11C C12A C13G | aptazyme ON/OFF ratio | 1.3
U8G G9A U10G U11A C13A | aptazyme ON/OFF ratio | 1.14
U7G U8A G9A U10C U11G C13G | aptazyme ON/OFF ratio | 1.15
U7G U8A U10G U11A C12G C13G | aptazyme ON/OFF ratio | 1.25
U7A U10G C12A | aptazyme ON/OFF ratio | 1.16
U7G U8A U10G U11G C12G | aptazyme ON/OFF ratio | 1.5
U7G U8A G9A U10A U11A C12U C13G | aptazyme ON/OFF ratio | 1.12
U8C G9A U10A U11G C12A C13U | aptazyme ON/OFF ratio | 1.11
U7A U8C U10A U11C C12A | aptazyme ON/OFF ratio | 1.09
U7A G9U U10A U11A C12G C13G | aptazyme ON/OFF ratio | 1.25
U7C U8A G9C U11G C12A C13G | aptazyme ON/OFF ratio | 1.15
U7A U8G G9U U10C C12U C13U | aptazyme ON/OFF ratio | 1.31
U8C G9C U10C U11G C13U | aptazyme ON/OFF ratio | 1.17
U7C U8C G9A C13U | aptazyme ON/OFF ratio | 1.83
